Listing of entries alongside the reported viability, T/C.
- Test system: 454973-116-R2-J3-PDC spheroids, viability, % test/control
- assay-overview: Anticancer human tumor 454973-116-R2-J3-PDC patient-derived pancreatic carcinoma cell line growth inhibition [GQUAD]
- condition-summary: second compound 0.316 µM; first compound 1 µM; stronger effect = lower value; spheroids with HUVEC and MSC

O=C(NO)c1cnc(N2CCN(S(=O)(=O)c3ccc4ccccc4c3)CC2)nc1 + CN(C)c1ccc(Nc2c3ccc(NC(=O)CCN4CCCC4)cc3nc3cc(NC(=O)CCN4CCCC4)ccc23)cc1: 3.25%

Recorded viability, T/C for Cc1cccc(N(C)C(=O)C2C(O)CCN2c2nc(C)cc(C(F)(F)F)c2C#N)c1 (stereo not given) + CN(C)c1ccc(Nc2c3ccc(NC(=O)CCN4CCCC4)cc3nc3cc(NC(=O)CCN4CCCC4)ccc23)cc1 , please?
103%

Let us now turn to CC1COCCN1c1cc(C2(S(C)(=N)=O)CC2)nc(-c2ccnc3[nH]ccc23)n1 (stereo not given) + Cc1cnc(CNC(=O)c2c(=O)c3ccc(N4CCCN(C)CC4)nc3n3c2sc2ccccc23)cn1
50.5%

Similarly, Cc1cccc(N(C)C(=O)C2C(O)CCN2c2nc(C)cc(C(F)(F)F)c2C#N)c1 (stereo not given) + Cc1cnc(CNC(=O)c2c(=O)c3ccc(N4CCCN(C)CC4)nc3n3c2sc2ccccc23)cn1 ?
67.6%

Would you kindly repeat that for COc1cccc2c1C(=O)c1c(O)c3c(c(O)c1C2=O)CC(O)(C(=O)CO)CC3OC1CC(N)C(O)C(C)O1 (stereo not given) + CN(C)c1ccc(Nc2c3ccc(NC(=O)CCN4CCCC4)cc3nc3cc(NC(=O)CCN4CCCC4)ccc23)cc1 ?
40.5%

* * *

- Tested on: 454973-116-R2-J3-PDC spheroids, viability, % test/control
- assay-overview: Anticancer human tumor 454973-116-R2-J3-PDC cell line growth inhibition [GQUAD]; active = viability on the fitted dose curve at most 10% of control; inactive = the rest;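 further: spheroids exposed to compounds for seven days; 100% = DMSO vehicle control viability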
- condition-summary: second compound 0.1 µM; first compound 0.1 µM; spheroids with HUVEC and MSC
A correct response names exactly one class from yes (1) = active, no (0) = inactive

Past entries and their recorded results:
COc1cccc2c1C(=O)c1c(O)c3c(c(O)c1C2=O)CC(O)(C(=O)CO)CC3OC1CC(N)C(O)C(C)O1 (stereo not given) + Cc1cnc(CNC(=O)c2c(=O)c3ccc(N4CCCN(C)CC4)nc3n3c2sc2ccccc23)cn1: no (0)
C=CCn1c(=O)c2cnc(Nc3ccc(N4CCN(C)CC4)cc3)nc2n1-c1cccc(C(C)(C)O)n1 + CN(C)c1ccc(Nc2c3ccc(NC(=O)CCN4CCCC4)cc3nc3cc(NC(=O)CCN4CCCC4)ccc23)cc1: no (0)
CC1COCCN1c1cc(-c2ccnn2C)c2ccnc(-c3ccn[nH]3)c2n1 (stereo not given) + Cc1cnc(CNC(=O)c2c(=O)c3ccc(N4CCCN(C)CC4)nc3n3c2sc2ccccc23)cn1: no (0)

Hi team, can someone confirm the assay call for CCCS(=O)(=O)Nc1ccc(F)c(C(=O)c2c[nH]c3ncc(-c4ccc(Cl)cc4)cc23)c1F + Cc1cnc(CNC(=O)c2c(=O)c3ccc(N4CCCN(C)CC4)nc3n3c2sc2ccccc23)cn1 ?
no (0)

# repeat for CC(C)(O)C1CCC(Nc2ccc3ncc(-c4cccc(C(F)(F)F)c4)n3n2)CC1 (stereo not given) + Cc1cnc(CNC(=O)c2c(=O)c3ccc(N4CCCN(C)CC4)nc3n3c2sc2ccccc23)cn1
no (0)

What do you get for O=C(c1cc(Cc2n[nH]c(=O)c3ccccc23)ccc1F)N1CCN(C(=O)C2CC2)CC1 + Cc1[nH]c2ccc(F)cc2c1-c1nc2c3cccnc3c3ncccc3c2[nH]1 ?
no (0)

Next: CC(C)n1c(=O)n(C)c2cnc3cc(F)c(-c4ccc(OCCCN5CCCCC5)nc4)cc3c21 + CN(C)c1ccc(Nc2c3ccc(NC(=O)CCN4CCCC4)cc3nc3cc(NC(=O)CCN4CCCC4)ccc23)cc1
no (0)

Consider next the compound CCCS(=O)(=O)Nc1ccc(F)c(C(=O)c2c[nH]c3ncc(-c4ccc(Cl)cc4)cc23)c1F + CN(C)c1ccc(Nc2c3ccc(NC(=O)CCN4CCCC4)cc3nc3cc(NC(=O)CCN4CCCC4)ccc23)cc1 in the same way.
no (0)

Same lookup for CC1COCCN1c1cc(C2(S(C)(=N)=O)CC2)nc(-c2ccnc3[nH]ccc23)n1 (stereo not given) + CN(C)c1ccc(Nc2c3ccc(NC(=O)CCN4CCCC4)cc3nc3cc(NC(=O)CCN4CCCC4)ccc23)cc1 , please.
no (0)

Same read-out for CC(=O)O[C@H]1C(=O)[C@@]2(C)[C@H]([C@H](OC(=O)c3ccccc3)[C@]3(O)C[C@H](OC(=O)[C@H](O)[C@@H](NC(=O)c4ccccc4)c4ccccc4)C(C)=C1C3(C)C)[C@]1(OC(C)=O)CO[C@@H]1C[C@@H]2O + Cc1[nH]c2ccc(F)cc2c1-c1nc2c3cccnc3c3ncccc3c2[nH]1 ?
yes (1)

Try this compound next: O=C(c1cc(Cc2n[nH]c(=O)c3ccccc23)ccc1F)N1CCN(C(=O)C2CC2)CC1 + Cc1cnc(CNC(=O)c2c(=O)c3ccc(N4CCCN(C)CC4)nc3n3c2sc2ccccc23)cn1
no (0)

Can you handle CC1COCCN1c1cc(C2(O)CC3CCC(C2)O3)c2cnn(-c3ccn[nH]3)c2n1 (stereo not given) + Cc1cnc(CNC(=O)c2c(=O)c3ccc(N4CCCN(C)CC4)nc3n3c2sc2ccccc23)cn1 next?
no (0)

Now consider Cc1cccc(N(C)C(=O)C2C(O)CCN2c2nc(C)cc(C(F)(F)F)c2C#N)c1 (stereo not given) + CN(C)c1ccc(Nc2c3ccc(NC(=O)CCN4CCCC4)cc3nc3cc(NC(=O)CCN4CCCC4)ccc23)cc1 .
no (0)

Ok, now COc1cccc2c1C(=O)c1c(O)c3c(c(O)c1C2=O)CC(O)(C(=O)CO)CC3OC1CC(N)C(O)C(C)O1 (stereo not given) + CN(C)c1ccc(Nc2c3ccc(NC(=O)CCN4CCCC4)cc3nc3cc(NC(=O)CCN4CCCC4)ccc23)cc1
no (0)

Record: O=C(NO)c1cnc(N2CCN(S(=O)(=O)c3ccc4ccccc4c3)CC2)nc1 + CN(C)c1ccc(Nc2c3ccc(NC(=O)CCN4CCCC4)cc3nc3cc(NC(=O)CCN4CCCC4)ccc23)cc1
no (0)
